# Experimental Protocol: Metabolic stability in liver microsomes (MLM)
# Type: in vitro ADME, mice
# Protocol Conditions: percent remaining at 60 min, 1 μM compound, 0.25 mg/mL protein, 1 mM NADPH
Experimental Readout: Met Stab % (60 mins) MLM (%)

Record request: Met Stab % (60 mins) MLM value, item N#Cc1ccc2c(c1)C(=O)/C(=N\Nc1nc3ccccc3s1)C2 [7-92]
41

Also, CN(/N=C1\CCc2ccccc21)c1nc2ccccc2s1 [7-30] please.
1

Also, Clc1cccc2nc(N/N=C3\CCc4ccccc43)sc12 [7-34] please.
0

Also, CN(C)c1ccc2c(c1)C/C(=N/Nc1nc3ccccc3s1)C2=O [7-127] please.
14

A: O=C1C/C(=N/Nc2nc3ccccc3s2)c2ccccc21 [7-52]
B: Cn1c(N/N=C2/Cc3ccccc3C2=O)nc2ccccc21 [7-79]
When the recorded Met Stab % (60 mins) MLM values are compared, which is smaller: that of A or that of B ? Field: selected label. Fill in the label of the entry you choose.
B

a: O=C1/C(=N\Nc2nc3ccccc3s2)Cc2cc(F)c(Cl)cc21 [7-100]
b: O=C(O)c1csc(N/N=C2/Cc3ccccc3C2=O)n1 [7-87]
Of a and b , whose reported Met Stab % (60 mins) MLM is the larger number? Field: selected label. Fill in the label of the entry you choose.
b
(b: 98%, a: 30%)

I: O=C1/C(=N\Nc2nc3ccccc3s2)CC2C=CC=CC12 (stereo not shown) [7-41]
II: c1ccc2c(c1)Cc1nn(-c3nc4ccccc4s3)cc1-2 [7-37]
Of I and II , whose reported Met Stab % (60 mins) MLM is the larger number? Field: selected label. Fill in the label of the entry you choose.
I

P: COC(=O)c1ccc2c(c1)C(=O)/C(=N\Nc1nc3ccccc3s1)C2 [7-110]
Q: FC(F)(F)c1ccc2c(c1)/C(=N\Nc1nc3ccccc3s1)CC2 [7-36]
When the recorded Met Stab % (60 mins) MLM values are compared, which is smaller: that of P or that of Q ? Field: selected label. Fill in the label of the entry you choose.
P
(P: 25%, Q: 78%)

a: O=C1/C(=N\Nc2nc3ccccc3s2)Cc2cc(N3CCCCC3)ccc21 [7-112]
b: Fc1ccc2c(c1)/C(=N\Nc1nc3ccccc3s1)CC2 [7-56]
c: O=C1/C(=N\Nc2nc3ccccc3s2)Cc2cc(F)cc(F)c21 [7-102]
d: FC1(F)Cc2ccccc2/C1=N/Nc1nc2ccccc2s1 [7-35]
Sort low-to-high on Met Stab % (60 mins) MLM, please. Sort and list the labels as requested.
b, d, a, c
(b: 0%, d: 1%, a: 26%, c: 46%)

I: O=C1/C(=N\Nc2nc3ccccc3s2)Cc2cc(O)ccc21 [7-121]
II: COC(=O)c1ccc2nc(N/N=C3/Cc4ccccc4C3=O)sc2c1 [7-111]
Of I and II , whose reported Met Stab % (60 mins) MLM is the larger number? Field: selected label. Fill in the label of the entry you choose.
I

I: O=C1/C(=N\Nc2nc(-c3ccccc3)cs2)Cc2ccccc21 [7-78]
II: Fc1cccc2nc(N/N=C3/CCc4ccccc43)sc12 [7-65]
Of I and II , whose reported Met Stab % (60 mins) MLM is the larger number? Field: selected label. Fill in the label of the entry you choose.
I

a: O=C1/C(=N\Nc2nc3ccccc3s2)Cc2ccc(F)cc21 [7-81]
b: O=C1/C(=N\Nc2nc3ccccc3s2)Cc2cccc(C(F)(F)F)c21 [7-106]
Of a and b , whose reported Met Stab % (60 mins) MLM is the larger number? Field: selected label. Fill in the label of the entry you choose.
b
(b: 38%, a: 26%)

Sourced from patent US20250205204A1
